Biological target: UniProtKB P08473
Sequence (P08473 52-750): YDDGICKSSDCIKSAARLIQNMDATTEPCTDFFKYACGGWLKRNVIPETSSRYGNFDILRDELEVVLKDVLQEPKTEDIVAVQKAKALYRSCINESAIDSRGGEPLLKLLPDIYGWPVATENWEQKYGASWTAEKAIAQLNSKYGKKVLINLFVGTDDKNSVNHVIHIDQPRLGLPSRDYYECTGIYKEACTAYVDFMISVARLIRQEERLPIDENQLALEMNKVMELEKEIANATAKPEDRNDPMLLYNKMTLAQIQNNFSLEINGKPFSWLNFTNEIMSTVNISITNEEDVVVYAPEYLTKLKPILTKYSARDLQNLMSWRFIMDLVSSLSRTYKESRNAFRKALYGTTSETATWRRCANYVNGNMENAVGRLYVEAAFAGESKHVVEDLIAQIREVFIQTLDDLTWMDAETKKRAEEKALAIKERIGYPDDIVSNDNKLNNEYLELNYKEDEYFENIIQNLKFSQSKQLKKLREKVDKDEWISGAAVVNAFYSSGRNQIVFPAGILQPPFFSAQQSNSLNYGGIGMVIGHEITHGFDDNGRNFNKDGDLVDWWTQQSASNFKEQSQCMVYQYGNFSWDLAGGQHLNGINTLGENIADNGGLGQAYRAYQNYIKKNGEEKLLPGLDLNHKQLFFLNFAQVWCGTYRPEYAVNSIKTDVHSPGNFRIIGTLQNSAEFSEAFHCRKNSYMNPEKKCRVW
Assay: In vitro enzyme inhibition assay at human NEP
Settings: pKi, recombinant human NEP, fluorogenic peptide substrate, 37° C.
pKi: −log10 of the molar value.
molecules and their reported pKi

COC[C@H](C[C@@H](Cc1ccc(-c2cc(Cl)ccc2F)cc1)NC(=O)c1[nH]nc(C2CC2)c1F)C(=O)O [Example 2-3]	8.50 to 8.90
CS(=O)(=O)N[C@H](C[C@@H](Cc1ccc(-c2ccccc2)cc1)NC(=O)c1c[nH]nn1)C(=O)O [Example 47]	8.00 to 8.50
N[C@@H](C[C@@H](Cc1ccc(-c2cc(Cl)ccc2F)cc1)NC(=O)c1noc(=O)[nH]1)C(=O)O [Example 16-15]	8.00 to 8.50
CC1(O)CN(C[C@H](C[C@@H](Cc2ccc(-c3cc(Cl)ccc3F)cc2)NC(=O)c2c[nH]nn2)C(=O)O)C1 [Example 101b]	≥ 9.00

Determine reported pKi for N#CC[C@H](C[C@@H](Cc1ccc(-c2cc(Cl)ccc2F)cc1)NC(=O)c1cnsc1)C(=O)O [Example 52-3] ; test system: UniProtKB P08473.
8.50 to 8.90

Determine reported pKi for COC[C@H]1CCN1C[C@H](C[C@@H](Cc1ccc(-c2cc(Cl)ccc2F)cc1)NC(=O)c1c[nH]nn1)C(=O)O [Example 103b] ; test system: UniProtKB P08473.
≥ 9.00

Determine reported pKi for COCc1cc(C(=O)N[C@H](Cc2ccc(-c3cc(Cl)ccc3F)cc2Cl)C[C@@H](N)C(=O)O)no1 [Example 18-7] ; test system: UniProtKB P08473.
7.50 to 8.00

Determine reported pKi for CCc1cc(C(=O)N[C@H](Cc2ccc(-c3cc(Cl)ccc3F)cc2)C[C@@H](NC(=O)OC)C(=O)O)on1 [Example 29] ; test system: UniProtKB P08473.
≥ 9.00
